target.or.system: T1, recombinant human PD-1 expressed with a C-terminal myc-myc-hexahistidine tag (human)
T1 construct: also called hPD-1-MMH; human PD-1-MMH
T1 sequence (chain, as listed by the source limits assumed): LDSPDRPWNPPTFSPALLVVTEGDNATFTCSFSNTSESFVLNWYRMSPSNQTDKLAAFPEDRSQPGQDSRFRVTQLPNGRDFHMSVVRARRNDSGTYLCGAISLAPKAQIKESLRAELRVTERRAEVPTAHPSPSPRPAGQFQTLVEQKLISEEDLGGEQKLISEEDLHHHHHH
assay.procedure: SPR (Biacore), mAb captured, hPD-1-MMH injected, 25 C;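 also: rate constants obtained by fitting sensorgrams to a 1:1 binding model, KD derived as kd/ka and half-life as ln2/(60·kd) in minutes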
experimental.readout: kon (M⁻¹ s⁻¹)
Number only, in M⁻¹ s⁻¹; omit the unit.

# binder, kon / M⁻¹ s⁻¹
measured = [
    ("H4H7795N2 (antibody, human IgG4 S228P, kappa, V domains shown) VH: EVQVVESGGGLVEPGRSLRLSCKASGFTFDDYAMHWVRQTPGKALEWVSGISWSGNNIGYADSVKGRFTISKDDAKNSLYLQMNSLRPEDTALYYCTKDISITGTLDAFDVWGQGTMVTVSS VL: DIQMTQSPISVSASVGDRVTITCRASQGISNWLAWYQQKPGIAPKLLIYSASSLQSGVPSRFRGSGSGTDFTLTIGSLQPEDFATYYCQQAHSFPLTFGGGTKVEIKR", 63500),
    ("H4H7798N (antibody, human IgG4 S228P, kappa, V domains shown) VH: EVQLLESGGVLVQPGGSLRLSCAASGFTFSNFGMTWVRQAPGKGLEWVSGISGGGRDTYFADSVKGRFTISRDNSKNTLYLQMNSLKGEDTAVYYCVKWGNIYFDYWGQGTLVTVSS VL: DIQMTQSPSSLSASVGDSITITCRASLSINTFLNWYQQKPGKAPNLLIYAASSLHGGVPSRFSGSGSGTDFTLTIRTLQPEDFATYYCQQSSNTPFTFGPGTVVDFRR", 147000),
    ("H1M7800N (antibody, mouse IgG1, V domains shown, Human variable domains, mouse IgG1 Fc) VH: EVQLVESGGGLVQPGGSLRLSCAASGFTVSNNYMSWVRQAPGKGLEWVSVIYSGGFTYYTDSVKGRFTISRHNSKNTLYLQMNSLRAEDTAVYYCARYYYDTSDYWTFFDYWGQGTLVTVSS VL: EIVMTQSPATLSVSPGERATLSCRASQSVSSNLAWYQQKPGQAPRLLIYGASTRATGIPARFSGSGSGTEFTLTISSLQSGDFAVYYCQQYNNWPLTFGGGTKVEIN", 58800),
]

Now for a further binder.
Query: Look up kon for this binder: H2aM7798N (antibody, mouse IgG2a, V domains shown, Human variable domains, mouse IgG2a Fc; also called H2M7798N) VH: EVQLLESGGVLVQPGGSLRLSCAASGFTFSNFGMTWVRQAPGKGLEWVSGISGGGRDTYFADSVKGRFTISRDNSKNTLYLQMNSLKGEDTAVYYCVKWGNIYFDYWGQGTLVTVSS VL: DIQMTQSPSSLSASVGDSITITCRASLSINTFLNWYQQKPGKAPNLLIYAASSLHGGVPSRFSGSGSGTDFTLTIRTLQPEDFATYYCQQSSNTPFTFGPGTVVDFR
Reply: 132000
